Biological target: T1, hGITR-hIgG (human, UniProt Q9Y5U5 26-161, limits assumed)
T1 construct: not shown: human IgG part of the fusion
T1 sequence: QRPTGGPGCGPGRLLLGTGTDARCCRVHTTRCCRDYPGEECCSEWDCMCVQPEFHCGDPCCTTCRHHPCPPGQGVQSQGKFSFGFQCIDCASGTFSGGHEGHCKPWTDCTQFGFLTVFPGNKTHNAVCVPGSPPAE
Assay: BIAcore SPR; hGITR-hIgG capture antigen, mAb analyte
Listed below: kon values for each entry.
Response body: numeric value in M⁻¹ s⁻¹, unit text excluded.

Answered cases to consult:
# Binder, Quantity measured, Value reported
records = [
    ("61G6 (antibody, V domains shown, Parental rodent anti-human GITR monoclonal antibody from a hybridoma; kappa VL; also called 61G6.B6; hybridoma PTA-9891) VH: DVQLQESGPGLVKPSQSLSLTCTVTGYSITSDYAWNWIRQFPGNKLEWMGYISYSGSTRYNPSLKSRISITRDTSKNQFFLQLNSVTSEDTATYYCARQLGLRFFDYWGQGTTLTVSS VL: QIVLTQSPALMSASPGEKVTMTCSANSTVNYMYWYQQKPRSSPKPCIYLTSNLASGVPARFSGSGSGTSYSLTISSMEAEDAATYYCQQWNSNPPTFGAGTKLELRR", "kon", 4000),
    ("17F10 (antibody, V domains shown, Parental rodent anti-human GITR monoclonal antibody from a hybridoma; kappa VL; also called 17F10.B1) VH: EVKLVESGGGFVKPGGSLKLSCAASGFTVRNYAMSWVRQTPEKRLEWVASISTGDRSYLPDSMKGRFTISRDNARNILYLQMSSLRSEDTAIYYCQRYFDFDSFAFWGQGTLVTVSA VL: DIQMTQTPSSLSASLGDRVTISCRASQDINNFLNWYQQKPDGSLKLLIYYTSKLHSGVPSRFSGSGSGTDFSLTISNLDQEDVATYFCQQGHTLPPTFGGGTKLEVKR", "kon", "1.31e+06"),
    ("31H6 (antibody, V domains shown, Parental rodent anti-human GITR monoclonal antibody from a hybridoma; kappa VL; also called 31H6.B7) VH: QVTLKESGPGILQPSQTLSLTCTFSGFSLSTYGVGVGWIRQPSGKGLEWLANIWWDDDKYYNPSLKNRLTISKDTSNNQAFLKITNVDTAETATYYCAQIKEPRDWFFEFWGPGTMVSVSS VL: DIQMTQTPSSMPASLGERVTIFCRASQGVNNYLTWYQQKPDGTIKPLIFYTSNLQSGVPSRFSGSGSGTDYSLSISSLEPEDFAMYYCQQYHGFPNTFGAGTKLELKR", "kon", "1.57e+06"),
    ("9E5 (antibody, V domains shown, Parental rodent anti-human GITR monoclonal antibody from a hybridoma; kappa VL; also called 9E5.C1) VH: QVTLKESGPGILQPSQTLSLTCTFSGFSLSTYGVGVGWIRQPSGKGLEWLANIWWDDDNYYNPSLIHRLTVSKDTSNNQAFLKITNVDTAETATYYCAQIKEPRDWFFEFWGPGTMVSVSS VL: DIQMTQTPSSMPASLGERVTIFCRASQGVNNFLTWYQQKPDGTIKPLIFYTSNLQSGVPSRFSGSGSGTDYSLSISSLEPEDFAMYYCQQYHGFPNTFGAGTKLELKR", "kon", "2.33e+06"),
]

Now, please, on to the next binder.
Give its kon value. Item: 1D8 (antibody, V domains shown, Parental rodent anti-human GITR monoclonal antibody from a hybridoma; kappa VL; also called 1D8.B5) VH: QVTLKESGPGILKPSQTLSLTCSFSGFSLSTSGMGVGWIRQPSGKGLEWLAHIWWDDDKYYSPSLKSQLTISKDTSRNQVFLKITSLDTADTATYYCVRSYYYGSSGAMDYWGQGTSVTVSS VL: DIVMTQTPLSLPVSLGDQASISCRSSQSLVHSDGNTYLHWYLQKPGQSPKLLIYKVSKRFSGVPDRFSGSGSGTDFTLKISRVEAEDLGVYFCSQSTHVPPTFGGGTKLEIKR
428000
